src = ChEMBL document CHEMBL1135893

# System: Enterococcus faecium
# assay-name: Antibacterial activity evaluated as minimum inhibitory concentration against 568 Enterococcus faecium (GSE)
# Type: functional
measure-name: MIC
Could you respond with only the numeric value?

See these solved cases before continuing.
molecule	MIC
C[C@H]1O[C@@H](O[C@@H]2[C@H](Oc3c4cc5cc3Oc3ccc(cc3Cl)[C@@H](O)[C@@H](N)C(=O)N[C@@H](CC(N)=O)C(=O)N[C@H]5C(=O)N[C@H]3C(=O)N[C@H](C(=O)N[C@H](C(=O)O)c5cc(O)cc(O)c5-c5cc3ccc5O)[C@H](O[C@H]3C[C@@](C)(N)[C@@H](O)[C@@H](C)O3)c3cccc(c3)O4)O[C@@H](CO)[C@H](O)[C@H]2O)C[C@@](C)(NCc2ccc(-c3ccc(Cl)cc3)cc2)[C@H]1O	4
CCCCCCCCCCN[C@]1(C)C[C@H](O[C@@H]2[C@H](Oc3c4cc5cc3Oc3ccc(cc3Cl)[C@@H](O)[C@@H](N)C(=O)N[C@@H](CC(N)=O)C(=O)N[C@H]5C(=O)N[C@H]3C(=O)N[C@H](C(=O)N[C@H](C(=O)O)c5cc(O)cc(O)c5-c5cc3ccc5O)[C@H](O[C@H]3C[C@@](C)(N)[C@@H](O)[C@@H](C)O3)c3cccc(c3)O4)O[C@@H](CO)[C@H](O)[C@H]2O)O[C@H](C)[C@@H]1O	8
CCCCCCCCCCNCc1c(O)cc2c(c1O)-c1cc(ccc1O)[C@H]1NC(=O)[C@@H]3NC(=O)[C@H](CC(N)=O)NC(=O)[C@H](NC(=O)[C@@H](CC(C)C)NC)[C@H](O)c4ccc(c(Cl)c4)Oc4cc3cc(c4O[C@@H]3O[C@@H](CO)[C@H](O)[C@@H](O)[C@@H]3O[C@H]3C[C@@](C)(N)[C@@H](O)[C@@H](C)O3)Oc3cccc(c3)[C@@H](O[C@H]3C[C@@](C)(N)[C@@H](O)[C@@H](C)O3)[C@H](NC1=O)C(=O)N[C@@H]2C(=O)O	0.5
CN[C@H](CC(C)C)C(=O)N[C@H]1C(=O)N[C@@H](CC(N)=O)C(=O)N[C@H]2C(=O)N[C@H]3C(=O)N[C@H](C(=O)N[C@H](C(=O)O)c4cc(O)c(CNCc5ccc(-c6ccc(Cl)cc6)cc5)c(O)c4-c4cc3ccc4O)[C@H](O[C@H]3C[C@@](C)(N)[C@@H](O)[C@@H](C)O3)c3cccc(c3)Oc3cc2cc(c3O[C@@H]2O[C@@H](CO)[C@H](O)[C@@H](O)[C@@H]2O[C@H]2C[C@@](C)(N)[C@@H](O)[C@@H](C)O2)Oc2ccc(cc2Cl)[C@H]1O	1

Moving on to another compound below.
If you can, please state the reported MIC value of CN[C@H](CC(C)C)C(=O)N[C@H]1C(=O)N[C@@H](CC(N)=O)C(=O)N[C@H]2C(=O)N[C@H]3C(=O)N[C@H](C(=O)N[C@H](C(=O)O)c4cc(O)cc(O)c4-c4cc3ccc4O)[C@H](O[C@H]3C[C@@](C)(N)[C@@H](O)[C@@H](C)O3)c3cccc(c3)Oc3cc2cc(c3O[C@@H]2O[C@@H](CO)[C@H](O)[C@@H](O)[C@@H]2O[C@H]2C[C@@](C)(N)[C@@H](O)[C@@H](C)O2)Oc2ccc(cc2Cl)[C@H]1O . 0.25

###

# MIC per entry
# Test system: Staphylococcus aureus
# assay-name: Antibacterial activity evaluated as minimum inhibitory concentration against 3798 Staphylococcus aureus (GISA)
# Assay type: functional
# Design: unit not given beside the values
Could you respond with only the numeric value?

See these solved cases before continuing.
molecule	measure-name	test-value
CCCCCCCCCCNC(=O)[C@H]1NC(=O)[C@H]2NC(=O)[C@H](NC(=O)[C@@H]3NC(=O)[C@H](CC(N)=O)NC(=O)[C@H](NC(=O)[C@@H](CC(C)C)NC)[C@H](O)c4ccc(c(Cl)c4)Oc4cc3cc(c4O[C@@H]3O[C@@H](CO)[C@H](O)[C@@H](O)[C@@H]3O[C@H]3C[C@@](C)(N)[C@@H](O)[C@@H](C)O3)Oc3cccc(c3)[C@H]2O[C@H]2C[C@@](C)(N)[C@@H](O)[C@@H](C)O2)c2ccc(O)c(c2)-c2c(O)cc(O)cc21	MIC	4
C[C@H]1O[C@@H](O[C@@H]2[C@H](Oc3c4cc5cc3Oc3ccc(cc3Cl)[C@@H](O)[C@@H](N)C(=O)N[C@@H](CC(N)=O)C(=O)N[C@H]5C(=O)N[C@H]3C(=O)N[C@H](C(=O)N[C@H](C(=O)O)c5cc(O)cc(O)c5-c5cc3ccc5O)[C@H](O[C@H]3C[C@@](C)(N)[C@@H](O)[C@@H](C)O3)c3cccc(c3)O4)O[C@@H](CO)[C@H](O)[C@H]2O)C[C@@](C)(NCc2ccc(-c3ccc(Cl)cc3)cc2)[C@H]1O	MIC	8
C[C@H]1O[C@@H](O[C@@H]2[C@H](Oc3c4cc5cc3Oc3ccc(cc3Cl)[C@@H](O)[C@@H](N)C(=O)N[C@@H](CC(N)=O)C(=O)N[C@H]5C(=O)N[C@H]3C(=O)N[C@H](C(=O)N[C@H](C(=O)O)c5cc(O)cc(O)c5-c5cc3ccc5O)[C@H](O[C@H]3C[C@@](C)(N)[C@@H](O)[C@@H](C)O3)c3cccc(c3)O4)O[C@@H](CO)[C@H](O)[C@H]2O)C[C@@](C)(N)[C@H]1O	MIC	64
CN[C@H](CC(C)C)C(=O)N[C@H]1C(=O)N[C@@H](CC(N)=O)C(=O)N[C@H]2C(=O)N[C@H]3C(=O)N[C@H](C(=O)N[C@H](C(=O)O)c4cc(O)c(CNCc5ccc(-c6ccc(Cl)cc6)cc5)c(O)c4-c4cc3ccc4O)[C@H](O[C@H]3C[C@@](C)(N)[C@@H](O)[C@@H](C)O3)c3cccc(c3)Oc3cc2cc(c3O[C@@H]2O[C@@H](CO)[C@H](O)[C@@H](O)[C@@H]2O[C@H]2C[C@@](C)(N)[C@@H](O)[C@@H](C)O2)Oc2ccc(cc2Cl)[C@H]1O	MIC	2

Moving on to another compound below.
If you can, please state the reported MIC value of CCCCCCCCCCN[C@]1(C)C[C@H](O[C@@H]2[C@H](Oc3c4cc5cc3Oc3ccc(cc3Cl)[C@@H](O)[C@@H](N)C(=O)N[C@@H](CC(N)=O)C(=O)N[C@H]5C(=O)N[C@H]3C(=O)N[C@H](C(=O)N[C@H](C(=O)O)c5cc(O)cc(O)c5-c5cc3ccc5O)[C@H](O[C@H]3C[C@@](C)(N)[C@@H](O)[C@@H](C)O3)c3cccc(c3)O4)O[C@@H](CO)[C@H](O)[C@H]2O)O[C@H](C)[C@@H]1O . 16

###

# MIC per entry
# Test system: Staphylococcus aureus
# assay-name: Antibacterial activity evaluated as minimum inhibitory concentration against 3798 Staphylococcus aureus (GISA)
# Format: functional
# Parameters: unit not given beside the values
Could you respond with only the numeric value?

molecule	MIC
CN[C@H](CC(C)C)C(=O)N[C@H]1C(=O)N[C@@H](CC(N)=O)C(=O)N[C@H]2C(=O)N[C@H]3C(=O)N[C@H](C(=O)N[C@H](C(=O)O)c4cc(O)cc(O)c4-c4cc3ccc4O)[C@H](O[C@H]3C[C@@](C)(N)[C@@H](O)[C@@H](C)O3)c3cccc(c3)Oc3cc2cc(c3O[C@@H]2O[C@@H](CO)[C@H](O)[C@@H](O)[C@@H]2O[C@H]2C[C@@](C)(NCc3ccc(-c4ccc(Cl)cc4)cc3)[C@@H](O)[C@@H](C)O2)Oc2ccc(cc2Cl)[C@H]1O	4

Moving on to another molecule below.
What measured MIC is associated with CN[C@H](CC(C)C)C(=O)N[C@H]1C(=O)N[C@@H](CC(N)=O)C(=O)N[C@H]2C(=O)N[C@H]3C(=O)N[C@H](C(=O)N[C@H](C(=O)NCc4ccc(-c5ccc(Cl)cc5)cc4)c4cc(O)cc(O)c4-c4cc3ccc4O)[C@H](O[C@H]3C[C@@](C)(N)[C@@H](O)[C@@H](C)O3)c3cccc(c3)Oc3cc2cc(c3O[C@@H]2O[C@@H](CO)[C@H](O)[C@@H](O)[C@@H]2O[C@H]2C[C@@](C)(N)[C@@H](O)[C@@H](C)O2)Oc2ccc(cc2Cl)[C@H]1O on Staphylococcus aureus? 4

###

# System: Nucleic Acid
# assay-name: Ratio UDP-MurNAc-tetrapeptide to UDP-MurNAc-Pentapeptide
# Type: nucleic-acid assay
measure-name: Ratio
Could you respond with only the numeric value?

molecule	test-target	test-value
CCCCCCCCCCN[C@]1(C)C[C@H](O[C@@H]2[C@H](Oc3c4cc5cc3Oc3ccc(cc3Cl)[C@@H](O)[C@@H](NC(=O)[C@@H](CC(C)C)NC)C(=O)N[C@@H](CC(N)=O)C(=O)N[C@H]5C(=O)N[C@H]3C(=O)N[C@H](C(=O)N[C@H](C(=O)O)c5cc(O)cc(O)c5-c5cc3ccc5O)[C@H](O[C@H]3C[C@@](C)(N)[C@@H](O)[C@@H](C)O3)c3cccc(c3)O4)O[C@@H](CO)[C@H](O)[C@H]2O)O[C@H](C)[C@@H]1O	Nucleic Acid	7.3

If you can, please state the reported Ratio value of CN[C@@H](CC(C)C)C(=O)N[C@H]1C(=O)N[C@@H](CC(N)=O)C(=O)N[C@H]2C(=O)N[C@H]3C(=O)N[C@H](C(=O)N[C@H](C(=O)O)c4cc(O)cc(O)c4-c4cc3ccc4O)[C@H](O[C@H]3C[C@@](C)(N)[C@@H](O)[C@@H](C)O3)c3cccc(c3)Oc3cc2cc(c3O[C@@H]2O[C@@H](CO)[C@H](O)[C@@H](O)[C@@H]2O[C@H]2C[C@@](C)(NCc3ccc(-c4ccc(Cl)cc4)cc3)[C@@H](O)[C@@H](C)O2)Oc2ccc(cc2Cl)[C@H]1O . 23

If you can, please state the reported Ratio value of CCCCCCCCCCNC(=O)[C@H]1NC(=O)[C@H]2NC(=O)[C@H](NC(=O)[C@@H]3NC(=O)[C@H](CC(N)=O)NC(=O)[C@H](NC(=O)[C@@H](CC(C)C)NC)[C@H](O)c4ccc(c(Cl)c4)Oc4cc3cc(c4O[C@@H]3O[C@@H](CO)[C@H](O)[C@@H](O)[C@@H]3O[C@H]3C[C@@](C)(N)[C@@H](O)[C@@H](C)O3)Oc3cccc(c3)[C@H]2O[C@H]2C[C@@](C)(N)[C@@H](O)[C@@H](C)O2)c2ccc(O)c(c2)-c2c(O)cc(O)cc21 . 5

If you can, please state the reported Ratio value of C[C@H]1O[C@@H](O[C@@H]2[C@H](Oc3c4cc5cc3Oc3ccc(cc3Cl)[C@@H](O)[C@@H](N)C(=O)N[C@@H](CC(N)=O)C(=O)N[C@H]5C(=O)N[C@H]3C(=O)N[C@H](C(=O)N[C@H](C(=O)O)c5cc(O)cc(O)c5-c5cc3ccc5O)[C@H](O[C@H]3C[C@@](C)(N)[C@@H](O)[C@@H](C)O3)c3cccc(c3)O4)O[C@@H](CO)[C@H](O)[C@H]2O)C[C@@](C)(NCc2ccc(-c3ccc(Cl)cc3)cc2)[C@H]1O . 1.2
